Test system: HPPD polypeptides (wild-type SEQ ID NO:1 and mutants)
Details: in the presence of Cmpd. 1, 15 μM inhibitor, high substrate concentration; total change in signal normalized to no inhibitor
assay endpoint: Residual turnover (%)
# value in %; strip the unit string

input: What Residual turnover value was documented for this molecule, 29 (protein, mutant HPPD polypeptide) MADLYENPMGLMGFEFIEFASPTPGTLEPIFEIMGFTKVATHRSKNVHLYRQGEINLILNNEPNSIASYFAAEHGPSVCGMAFRVKDSQKAYNRALELGAQPIHIDTGPMELNLPAIKGIGGAPLYLIDRFGEGSSIYDIDFVYLEGVERNPVGAGLKVIDHLTHNVYRGRMVYWANFYEKLFNFREARYFDIKGEYTGLTSKAMSAPDGMIRIPLNEESSKGAGQIEEFLMQFNGEGIQHVAFLTDDLVKTWDALKKIGMRFMTAPSDSYYEMLEGRLPDHGEPVDQLQARGILLDGSSVEGDKRLLLQIFSETLMGPVFFEFIQRKGDDGFGPHSFKVLFESVERDQVRRGVLTAD ?
output: 59
